Target Desc: T1, Recombinant Human FGFR2 alpha (IIIc) Fc Chimera Protein, CF (R&D systems, 712-FR-050) (human, UniProt P21802 22-377)
T1 construct: bought; not shown: Fc part of the chimera
T1 sequence (P21802 22-377, change not shown): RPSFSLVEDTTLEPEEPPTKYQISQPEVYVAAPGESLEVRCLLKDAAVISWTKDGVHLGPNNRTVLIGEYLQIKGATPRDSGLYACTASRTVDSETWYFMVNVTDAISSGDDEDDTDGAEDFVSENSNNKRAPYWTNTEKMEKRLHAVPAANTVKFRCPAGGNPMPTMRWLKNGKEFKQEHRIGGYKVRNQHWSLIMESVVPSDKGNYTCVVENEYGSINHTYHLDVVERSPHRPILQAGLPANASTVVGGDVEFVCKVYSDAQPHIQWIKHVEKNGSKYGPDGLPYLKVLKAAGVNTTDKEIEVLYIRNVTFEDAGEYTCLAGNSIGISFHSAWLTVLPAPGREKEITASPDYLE
Assay Info: ELISA on plate-bound FGFR2-Fc
Bridge positions count the residues as written; N and C are the ends. Ends that are not written are not given here. COCH2 = acetyl group that carries the bridge
Please go through the items and note down their ELISA luminescence signal at 10 nmol/L peptide, relative to SEQ ID NO: 47 (=1).

Reference set, count: 3
[in] For the binder shown here, YCEENYSDPEQYQYFIYFK(COCH2)Y (thioether 2-19 (inferred)) [cyclic peptide SEQ ID NO: 202] , give the reported ELISA luminescence signal at 10 nmol/L peptide, relative to SEQ ID NO: 47 (=1).
[out] 0.5 to 0.7 ratio

[in] What about this binder? YCAENYLDPEQYQYFIYFK(COCH2)Y (thioether 2-19 (inferred)) [cyclic peptide SEQ ID NO: 323]
[out] ≥ 0.7 ratio

[in] What about this binder? YCEENYLDPEQYHYFIYFK(COCH2)Y (thioether 2-19 (inferred)) [cyclic peptide SEQ ID NO: 270]
[out] ≥ 0.7 ratio

Hi there! I need ELISA luminescence signal at 10 nmol/L peptide, relative to SEQ ID NO: 47 (=1) for each item below, if you can.
1. SCIQQNYFWQYVFERYRYK(COCH2)Q (thioether 2-19 (inferred)) [cyclic peptide SEQ ID NO: 46]
2. YCETNYLDPEQYQYFIYFK(COCH2)Y (thioether 2-19 (inferred)) [cyclic peptide SEQ ID NO: 177]
3. YCEVNYLDPEQYQYFIYFK(COCH2)Y (thioether 2-19) [cyclic peptide SEQ ID NO: 170]
4. YCEENYTDPEQYQYFIYFK(COCH2)Y (thioether 2-19 (inferred)) [cyclic peptide SEQ ID NO: 203]

[out]
0.5 to 0.7 ratio
≥ 0.7 ratio
≥ 0.7 ratio
≥ 0.7 ratio

Hi there! I need ELISA luminescence signal at 10 nmol/L peptide, relative to SEQ ID NO: 47 (=1) for each item below, if you can.
1. KCEENYLDPEQYQYFIYFK(COCH2)Y (thioether 2-19; not fully specified; printed as K-(C)-EENYLDPEQYQYFIYF-(K(acetyl))-Y) [cyclic peptide SEQ ID NO: 335]
2. YCEENYLDPEQYQYFIYFK(COCH2)W (thioether 2-19 (inferred)) [cyclic peptide SEQ ID NO: 313]
3. DCQLYYLYQYVLTK(COCH2)V (thioether 2-14) [cyclic peptide SEQ ID NO: 370]
4. RCPQNFINPVQWRYFQHYK(COCH2)N (thioether 2-19 (inferred)) [cyclic peptide SEQ ID NO: 85]
5. YCEENYLDLEQYQYFIYFK(COCH2)Y (thioether 2-19 (inferred)) [cyclic peptide SEQ ID NO: 222]

[out]
1: ≥ 0.7 ratio; 2: ≥ 0.7 ratio; 3: 0.1 to 0.5 ratio; 4: ≥ 0.7 ratio; 5: ≥ 0.7 ratio

Hi there! I need ELISA luminescence signal at 10 nmol/L peptide, relative to SEQ ID NO: 47 (=1) for each item below, if you can.
1. QCPQNFINPVQFRYFQHYK(COCH2)N (thioether 2-19) [cyclic peptide SEQ ID NO: 103]
2. YCEENYLDSEQYQYFIYFK(COCH2)Y (thioether 2-19 (inferred)) [cyclic peptide SEQ ID NO: 230]

[out]
1. 0.5 to 0.7 ratio
2. ≥ 0.7 ratio

Hi there! I need ELISA luminescence signal at 10 nmol/L peptide, relative to SEQ ID NO: 47 (=1) for each item below, if you can.
1. LCEENYLDPEQYQYFIYFK(COCH2)Y (thioether 2-19) [cyclic peptide SEQ ID NO: 138]
2. VCPQNFINPVQWRYFQHYK(COCH2)N (thioether 2-19 (inferred)) [cyclic peptide SEQ ID NO: 75]

[out]
1: ≥ 0.7 ratio; 2: ≥ 0.7 ratio
